test: yeast display, Sf9 membrane polyspecificity reagent, FACS + sequencing; frameworks hold sequencing errors
Endpoint Name: polyreactivity (PSR sort gate)

{"Seq Text": "QVQLVESGGGLVQAGGSLRFSCAASGFIFGDYAMGWDRQAPGTEREFVATISRSVGSRSYADSVKGRFTISRDNAKKPVYLQMNSLKPEDTAVYYCAAVTWGEGFDYWGQGTQVTVSA", "Result": "low polyreactivity"}
{"Seq Text": "QVQLVESGGGLVQAGGSLRLSCAASGSTFGSYAMGWYRQAPGKERELVAAITTSGSSTYYADSVKGRFTISRDNAKNTVYLQMNSLKPEDTAVYYCNARPRRLSYSSYNYWGQGTQVTVSS", "Result": "high polyreactivity"}
{"Seq Text": "QVQLVESGGGLVQAGGSLRLSCAASGSILSTNDMGWYRQAPGKERELVAGISSGGSTNYADSVKGRFTISRDNAKNTVYLQMNSQKPEDTAVYYCATDVDKDPAEMDYWGQGTQVTVSS", "Result": "low polyreactivity"}
{"Seq Text": "QVQLVESGGGLVQAGGSLRLSCAASGGTFDWNPMGWYRQAPGKERELVASITSGGRTNYADSVKGRFTISRDNAKNTVYLQMNSLKPEDTAVSYCAKYRRSAYPWQTWVGQKFDYWGQGTHVTVSS", "Result": "low polyreactivity"}
{"Seq Text": "QVQLVESGGGLVQAGGSLRLSCAASGSIFSRNAMGWYRQAPGKERELVAAITWSGGSTYYADSVKGRFTISRDNAKNTVYLQMNSLKPEDTAVYYCNAKRSSRIKQLEYDYWGQGTQVTVSS", "Result": "high polyreactivity"}
{"Seq Text": "QVQLVESGGGLVQAGGSLRLTCAASGFTFFTYTMGWYRQPPGKERELVAAISRDGARTNYADSVKGRFTISRDNAKNTVYLQMNSLKPEDTAVYYCAAPTSHLYTEKYDYWGQGTQVTVSS", "Result": "high polyreactivity"}
{"Seq Text": "QVQLVESGGGLVQAGGSLRLSCAASGGIFTYYAMGWYRQAPGKERELVAAITWSGGSTYYADSVKGRFTISRDTAKNTVYLQMNSLKPEDTAVYYCNAVVLHVTTDNSTFTTDDYWGQGTQLTVSS", "Result": "low polyreactivity"}
{"Seq Text": "QVQLVESGAGLVQAGGSLRLSCAASGFTFAKYAMGWYRQAPGKERELVATIRRSDDNTYYADSVKGRFTISRDNAKNTVYLQMNSLKPEDTAVYYCATGYYALYSRKPYKYNYWGQGTQVTVSS", "Result": "high polyreactivity"}
{"Seq Text": "QVQRVESGGGLVQAGGSLRLSCAASGNTFYGYTMGWYRQAPGKERELVAAISGRGGSTTYADSVKGRFTISRDNEKNTVYCQMNSLKPEDTAVYDCAANSVYIRTRFYYWGQGTQETVSS", "Result": "high polyreactivity"}
{"Seq Text": "QVHLVESGGGLVQAGGRLRLSCAASGFTIGHYAMAWYRQAPGKERELVAAISSGDRTYYADSVKGRFTISRDNAKNTVYLQMNCLKPEDTAVYFCNGVYYSWAQSARFDYWGQGTQVTVSS", "Result": "low polyreactivity"}

###

experiment: yeast display, Sf9 membrane polyspecificity reagent, FACS + sequencing; frameworks hold sequencing errors

{"Seq Text": "QVQIVESGGGLVQAGGSLRLSCASSGRIFNTNAMGWYRQAPGKERELVAGITDSGDSTYYADSVKGRFTISRDNAKNTVYLQMNSLKPQDSAVYFCATDPASPYIYYYWGQGTQVTVSS", "polyreactivity (PSR sort gate)": "low polyreactivity"}
{"Seq Text": "QVQLVESGGGLVQAGGSLRLSCAASGSIFRVYAMGRYRQAPGKERELVATISGSAGRTYYADSVKGRFTISRDNAKNTVYLQMNSLKPEDTAVYYCAARWYKEYYWGQGTQVTVSS", "polyreactivity (PSR sort gate)": "high polyreactivity"}
{"Seq Text": "QVQLVESGGGLVQAGGSLRLSCAASGIIFRRYAMGWYRQAPGKERELVAAISWSGGSTYYADSVKGRFTISRDNAKNTVYLQMNSLKPEDTAVYYCAAAAYTRDEYDYWGQGTQVTVSS", "polyreactivity (PSR sort gate)": "high polyreactivity"}
{"Seq Text": "QVHLVESGGGLVQAGGSLRLSCAASGITLGYYVMGWYRQAPGKERELVAAISSSGGRTYYADSVKGRFTISRDNAKNTVYLQMNSLKPEDTAVYYCSADLGRGIYDYWGQGTQVTVSS", "polyreactivity (PSR sort gate)": "low polyreactivity"}
{"Seq Text": "QVQLVESGGGLVQAGGSLRLSCAASGSTFGWYAMVWYRQAPGKERELVAAIRNNDGRTYYADSVKGRFTISRDNAKNTVYLQMNSLKPEDTAVYYCNADYRSHYLYDYWGQGTQVTVSS", "polyreactivity (PSR sort gate)": "low polyreactivity"}
{"Seq Text": "QVQLVESGGGLVQAGGSLRLSCAASGSLFYNNAKGWYRQAPGKERELVAAIRSTGTRTYYADSVKGRFTISRDTAKNTVYLQMNSLKPEDTAVYYCAVGDYGLWSYDYWGQGSQVTVSS", "polyreactivity (PSR sort gate)": "low polyreactivity"}
{"Seq Text": "QVQLVESGGGLVQAGGSLRLSCAASGRIFWVNAMGWYRQAPGKERELVARIRGRSGSTYYADSVKGRFTISRDNAKNTVYLQMHSLKPEDTAVYYCNADFNRKVAGTPEVDYWGQGTQVTVSS", "polyreactivity (PSR sort gate)": "high polyreactivity"}
{"Seq Text": "QVQLVESGGGLVQAGGSLRLSCAASGSTFVGNAMGWYRQAPGKERELVAAITSGGSTNYADSVKGRFTISRDNAKNTVYLQMNSLKPEDTAVYYCAKRVSGSPPTAGSLSDSWGQGTQVTVSS", "polyreactivity (PSR sort gate)": "high polyreactivity"}
{"Seq Text": "QVQLVESGGGLVQAGGSLRLSCAASGRTFGPYAMGWYRQAPGKERELVAAITDTGSGTYYADSVKGRFTISRDNAKNTVYIQMNSLKPEDTAVFYCNANYLSWYRYKYNYWGQGTQVTVSS", "polyreactivity (PSR sort gate)": "low polyreactivity"}
{"Seq Text": "QVQLVESGGGLVQAGGSLRLSCAASGFTFFVYAMGWYRKAPGKERELVATINWSGASTYYADSVKGRFTISRDNAKNTVYLQMNSLKPEDTAVYYCDKDGHYPLVYLAFDYWGQGTQVTVSS", "polyreactivity (PSR sort gate)": "low polyreactivity"}
{"Seq Text": "QDQIGESGGGLVQAGGSLSLSCAASGTTIVNNAMGRNRQARWKERELVAAITQRGGRSSYADSVNGRFTISRDNAKNTVYLQMNSLKPEDTAVYYCATVATCRHKGKYNYLGQGTQVTVSS", "polyreactivity (PSR sort gate)": "low polyreactivity"}
{"Seq Text": "QVQLVESAGGLVQAGGSLRLSCAASRSIYGYYAMGWYRQEPGKERELVAAIRRSGGSTYYADSVKGRFTISRDNAKNTVYLHMNSLKPEDTAVYYCAARVSPYRGFYYWGLGTQVTVSS", "polyreactivity (PSR sort gate)": "high polyreactivity"}
{"Seq Text": "QVQLVESGGGLVQAGGSLRLSCAASGRTIRYYAMGWYRQAPGKERELVAAITWSVGSTYYADSVKGRFTISRDNAKNTVYLQMNSLKPEDTAVYYCAARLYQLYYWGQGTQVTVSS", "polyreactivity (PSR sort gate)": "high polyreactivity"}
{"Seq Text": "QVQLVESGGGLVQAGGSLRLSCAASGSIFATHAMGWYRQAPGQDRELVAAISWRTGSTVYADSVKGRFTISRDNAKNTDYLQMNSLKPEDTAVYYCAATRRGDNYRYDYWGQGTQVTVSS", "polyreactivity (PSR sort gate)": "high polyreactivity"}
